# assayTarget: μ-opioid receptor (Homo sapiens (Human), UniProt P35372)
# protocolDescription: μ-opioid receptor [35S]GTPγS functional assay, U-2 OS cells
# Type: biochemical
Lab note - cut at 6 nM for EC50: TRUE if strictly below, FALSE if not.

Ask | Is it true that EC50 reported for COc1ccc2c(c1)[C@]13CCN(CC4CCCCC4)[C@H](C2)[C@]1(O)CC[C@@]1(C3)NC(=O)NC1=O is less than 6 nM?
Reply | FALSE

Ask | Is it true that EC50 reported for N#CCN1C(=O)NC(=O)[C@@]12CC[C@@]1(O)[C@H]3Cc4ccc(O)cc4[C@@]1(CCN3CC1CC1)C2 is less than 6 nM?
Reply | TRUE

Ask | Is it true that EC50 reported for COc1ccc2c(c1)[C@]13CCN(CC(F)F)[C@H](C2)[C@]1(O)CC[C@@]1(C3)NC(=O)NC1=O is less than 6 nM?
Reply | FALSE

Ask | Is it true that EC50 reported for CCN1C(=O)N(CC)[C@]2(CC[C@@]3(O)[C@H]4Cc5ccc(O)cc5[C@@]3(CCN4CC3CC3)C2)C1=O is less than 6 nM?
Reply | TRUE

Ask | Is it true that EC50 reported for O=C1NC(=O)[C@@]2(CC[C@@]3(O)[C@H]4Cc5ccc(O)cc5[C@@]3(CCN4CCc3ccccc3)C2)N1 is less than 6 nM?
Reply | TRUE

Ask | Is it true that EC50 reported for CCN1C(=O)N[C@]2(CC[C@@]3(O)[C@H]4Cc5ccc(OC)cc5[C@@]3(CCN4CC)C2)C1=O is less than 6 nM?
Reply | FALSE

Ask | Is it true that EC50 reported for CCN1C(=O)N[C@]2(CC[C@@]3(O)[C@H]4Cc5ccc(O)cc5[C@@]3(CCN4CC3CC3)C2)C1=O is less than 6 nM?
Reply | FALSE

Ask | Is it true that EC50 reported for CCN1CC[C@]23C[C@]4(CC[C@@]2(O)[C@H]1Cc1ccc(OC)cc13)NC(=O)NC4=O is less than 6 nM?
Reply | FALSE

Ask | Is it true that EC50 reported for COc1ccc2c(c1)[C@]13CCN(CCCC(F)(F)F)[C@H](C2)[C@]1(O)CC[C@@]1(C3)NC(=O)NC1=O is less than 6 nM?
Reply | FALSE

Ask | Is it true that EC50 reported for CCN1C(=O)N(Cc2ccc(O)cc2)C(=O)[C@@]12CC[C@@]1(O)[C@H]3Cc4ccc(O)cc4[C@@]1(CCN3CC1CC1)C2 is less than 6 nM?
Reply | TRUE

Ask | Is it true that EC50 reported for COc1ccc2c(c1)[C@]13CCN(CC=C(C)C)[C@H](C2)[C@]1(O)CC[C@@]1(C3)NC(=O)NC1=O is less than 6 nM?
Reply | FALSE

Ask | Is it true that EC50 reported for O=C1NC(=O)[C@@]2(CC[C@@]3(O)[C@H]4Cc5ccc(O)cc5[C@@]3(CCN4CCCC(F)(F)F)C2)N1 is less than 6 nM?
Reply | FALSE

Ask | Is it true that EC50 reported for COc1ccc2c(c1)[C@]13CCN(CC4CCOCC4)[C@H](C2)[C@]1(O)CC[C@@]1(C3)NC(=O)NC1=O is less than 6 nM?
Reply | FALSE

Ask | Is it true that EC50 reported for O=C1NC(=O)[C@@]2(CC[C@@]3(O)[C@H]4Cc5ccc(O)cc5[C@@]3(CCN4CC3CCCCC3)C2)N1 is less than 6 nM?
Reply | FALSE
